Measured activity coefficient of individual entries
measurement-protocol: activity coefficient (dimensionless); of the first substance listed, at infinite dilution; xn = mol fraction of the nth substance listed
study-conditions: 348.15 K; 101 kPa; Liquid; Chromatography; x1 = 0
measured-property: activity coefficient

[[record]]
compound = "CCOC(C)=O [ethyl acetate] + COCC[N+]1(C)CCCCC1.O=S(=O)([N-]S(=O)(=O)C(F)(F)F)C(F)(F)F"
reported_value = 0.963

[[record]]
compound = "CCCCCCCCCC [decane] + COCC[N+]1(C)CCCCC1.O=S(=O)([N-]S(=O)(=O)C(F)(F)F)C(F)(F)F"
reported_value = 53.7

[[record]]
compound = "CC(C)=O [acetone] + COCC[N+]1(C)CCCCC1.O=S(=O)([N-]S(=O)(=O)C(F)(F)F)C(F)(F)F"
reported_value = 0.49

[[record]]
compound = "C#CCCCC [1-hexyne] + COCC[N+]1(C)CCCCC1.O=S(=O)([N-]S(=O)(=O)C(F)(F)F)C(F)(F)F"
reported_value = 3.01


----------
The entries below come with measured activity coefficient values attached.
measurement-protocol: activity coefficient (dimensionless); of the first substance listed, at infinite dilution; xn = mol fraction of the nth substance listed
study-conditions: 348.15 K; 101 kPa; Liquid; Chromatography; x1 = 0
measured-property: activity coefficient

[[record]]
compound = "CCC(C)(C)C [2,2-dimethylbutane] + COCC[N+]1(C)CCCCC1.O=S(=O)([N-]S(=O)(=O)C(F)(F)F)C(F)(F)F"
reported_value = 11.8

[[record]]
compound = "C=CCCC [1-pentene] + COCC[N+]1(C)CCCCC1.O=S(=O)([N-]S(=O)(=O)C(F)(F)F)C(F)(F)F"
reported_value = 5.6

[[record]]
compound = "CC1CCCCC1 [methylcyclohexane] + COCC[N+]1(C)CCCCC1.O=S(=O)([N-]S(=O)(=O)C(F)(F)F)C(F)(F)F"
reported_value = 11.2

[[record]]
compound = "CC(C)CO [2-methyl-1-propanol] + COCC[N+]1(C)CCCCC1.O=S(=O)([N-]S(=O)(=O)C(F)(F)F)C(F)(F)F"
reported_value = 1.92

[[record]]
compound = "CC#N [acetonitrile] + COCC[N+]1(C)CCCCC1.O=S(=O)([N-]S(=O)(=O)C(F)(F)F)C(F)(F)F"
reported_value = 0.473

[[record]]
compound = "Cc1ccccc1 [toluene] + COCC[N+]1(C)CCCCC1.O=S(=O)([N-]S(=O)(=O)C(F)(F)F)C(F)(F)F"
reported_value = 1.33

[[record]]
compound = "c1ccccc1 [benzene] + COCC[N+]1(C)CCCCC1.O=S(=O)([N-]S(=O)(=O)C(F)(F)F)C(F)(F)F"
reported_value = 0.943

[[record]]
compound = "C=CCCCCC [1-heptene] + COCC[N+]1(C)CCCCC1.O=S(=O)([N-]S(=O)(=O)C(F)(F)F)C(F)(F)F"
reported_value = 10.8

[[record]]
compound = "CCC(C)(C)OC [2-methoxy-2-methylbutane] + COCC[N+]1(C)CCCCC1.O=S(=O)([N-]S(=O)(=O)C(F)(F)F)C(F)(F)F"
reported_value = 3.73

[[record]]
compound = "CCCCO [butan-1-ol] + COCC[N+]1(C)CCCCC1.O=S(=O)([N-]S(=O)(=O)C(F)(F)F)C(F)(F)F"
reported_value = 2.01

[[record]]
compound = "CCO [ethanol] + COCC[N+]1(C)CCCCC1.O=S(=O)([N-]S(=O)(=O)C(F)(F)F)C(F)(F)F"
reported_value = 1.33

[[record]]
compound = "CCC(=O)OC [methyl propanoate] + COCC[N+]1(C)CCCCC1.O=S(=O)([N-]S(=O)(=O)C(F)(F)F)C(F)(F)F"
reported_value = 0.936

[[record]]
compound = "CCCCCC [hexane] + COCC[N+]1(C)CCCCC1.O=S(=O)([N-]S(=O)(=O)C(F)(F)F)C(F)(F)F"
reported_value = 14.2

[[record]]
compound = "C1CCCCC1 [cyclohexane] + COCC[N+]1(C)CCCCC1.O=S(=O)([N-]S(=O)(=O)C(F)(F)F)C(F)(F)F"
reported_value = 8.24

